- study-target: Integrin alpha-V/beta-6 (Homo sapiens, UniProt P06756+P18564)
- Sequence (P06756 31-889 limits assumed): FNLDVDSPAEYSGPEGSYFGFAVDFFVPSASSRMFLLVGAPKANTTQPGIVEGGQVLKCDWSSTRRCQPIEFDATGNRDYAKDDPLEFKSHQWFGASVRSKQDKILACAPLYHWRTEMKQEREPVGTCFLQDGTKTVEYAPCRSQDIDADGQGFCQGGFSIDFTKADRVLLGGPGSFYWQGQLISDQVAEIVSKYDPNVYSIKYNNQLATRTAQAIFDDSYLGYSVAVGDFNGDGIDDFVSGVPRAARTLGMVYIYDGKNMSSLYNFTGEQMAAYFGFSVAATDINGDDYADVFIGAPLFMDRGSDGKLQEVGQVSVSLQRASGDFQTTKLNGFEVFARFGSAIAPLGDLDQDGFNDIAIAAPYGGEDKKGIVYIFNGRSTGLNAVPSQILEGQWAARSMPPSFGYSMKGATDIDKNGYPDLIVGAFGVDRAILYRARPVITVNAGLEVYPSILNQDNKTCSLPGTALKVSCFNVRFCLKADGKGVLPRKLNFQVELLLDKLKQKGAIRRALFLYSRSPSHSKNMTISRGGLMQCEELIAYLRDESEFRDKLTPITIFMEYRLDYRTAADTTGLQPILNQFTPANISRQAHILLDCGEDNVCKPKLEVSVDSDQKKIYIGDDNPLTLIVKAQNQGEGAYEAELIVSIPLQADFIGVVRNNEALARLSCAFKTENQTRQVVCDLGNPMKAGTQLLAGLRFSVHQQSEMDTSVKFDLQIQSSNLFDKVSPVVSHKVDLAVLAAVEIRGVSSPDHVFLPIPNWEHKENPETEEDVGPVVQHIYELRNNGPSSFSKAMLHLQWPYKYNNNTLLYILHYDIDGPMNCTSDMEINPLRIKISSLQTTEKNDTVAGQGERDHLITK
- Sequence (P06756 891-1048 limits assumed): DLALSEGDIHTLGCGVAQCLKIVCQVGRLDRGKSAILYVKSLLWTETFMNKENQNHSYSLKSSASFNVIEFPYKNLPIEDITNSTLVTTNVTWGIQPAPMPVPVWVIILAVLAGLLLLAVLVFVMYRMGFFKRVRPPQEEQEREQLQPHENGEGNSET
- Sequence (P18564 22-788 limits assumed): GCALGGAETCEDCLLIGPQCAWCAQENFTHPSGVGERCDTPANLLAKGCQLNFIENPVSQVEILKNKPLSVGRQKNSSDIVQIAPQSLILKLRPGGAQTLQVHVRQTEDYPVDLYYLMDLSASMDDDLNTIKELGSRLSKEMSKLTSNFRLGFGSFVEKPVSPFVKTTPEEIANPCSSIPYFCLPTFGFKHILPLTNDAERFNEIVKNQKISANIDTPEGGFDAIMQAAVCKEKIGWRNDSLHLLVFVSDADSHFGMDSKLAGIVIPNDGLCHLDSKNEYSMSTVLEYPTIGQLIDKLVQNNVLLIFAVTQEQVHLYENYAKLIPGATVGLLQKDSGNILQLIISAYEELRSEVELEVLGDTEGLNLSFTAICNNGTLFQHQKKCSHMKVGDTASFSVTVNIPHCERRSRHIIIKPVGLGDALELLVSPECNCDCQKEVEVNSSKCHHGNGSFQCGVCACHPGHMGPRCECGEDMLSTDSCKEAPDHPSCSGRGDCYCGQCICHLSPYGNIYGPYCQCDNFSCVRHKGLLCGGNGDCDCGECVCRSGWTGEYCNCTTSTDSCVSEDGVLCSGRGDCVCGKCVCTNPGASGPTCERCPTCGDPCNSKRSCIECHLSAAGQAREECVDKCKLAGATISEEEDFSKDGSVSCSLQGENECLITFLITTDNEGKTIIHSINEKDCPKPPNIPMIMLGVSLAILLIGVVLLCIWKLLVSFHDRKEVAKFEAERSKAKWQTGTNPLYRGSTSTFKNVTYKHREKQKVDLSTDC
- measurement-protocol: Inhibition of integrin alpha-beta-6 receptor expressed in HT29 cells
reported-property: IC50 (µM)

Solved entries:
O=C(O)CC1CC1c1ccc(OCCc2ccc3c(n2)NCCC3)c(F)c1F (stereo unspecified) : 10
CNc1cccc(CCOc2ccc(C3CC3CC(=O)O)cc2)n1 (stereo unspecified) : 20
O=C(O)CC1CC1c1ccc(OCCc2ccc3c(n2)NCCC3)cc1 (stereo in doubt; (+)7) : 2.57
O=C(O)CC(Cc1ccc(OCCCNc2ccccn2)cc1)c1ccccc1 (stereo unspecified) : 19.8
CC(CC(=O)O)Cc1ccc(OCCCNc2ccccn2)cc1 (stereo unspecified) : 4.36
CC1(C)C(CC(=O)O)C1c1ccc(OCCc2ccc3c(n2)NCCC3)cc1 (stereo in doubt; 83) : 10

(P) CC1(C)C(CC(=O)O)C1c1ccc(OCCc2ccc3c(n2)NCCC3)cc1 (stereo in doubt; (+)83)
(Q) O=C(O)CC1CC1c1ccc(OCCc2ccc3c(n2)NCCC3)c(F)c1 (stereo unspecified)
-- ask Larger number for IC50: P , or Q ? Field: selected label. Fill in the label of the entry you choose.
-- reply Q
(Q: 3.53 µM, P: 1.79 µM)

(a) CC1(C)C(CC(=O)O)C1c1ccc(OCCc2ccc3c(n2)NCCC3)cc1 (single isomer, unassigned; (-))
(b) O=C(O)CC1C(c2ccc(OCCc3ccc4c(n3)NCCC4)cc2)C1(Cl)Cl (stereo unspecified)
-- ask Select the item whose IC50 value is smaller, choosing between a and b . Mark your selection by writing its label.
-- reply b
(b: 4.5 µM, a: 10 µM)

(A) O=C(O)CC1CC1c1ccc(OCCc2ccc3c(n2)NCCC3)c(O)c1 (stereo unspecified)
(B) O=C(O)CC1C(c2ccc(OCCc3ccc4c(n3)NCCC4)cc2)C1(Br)Br (stereo unspecified)
(C) O=C(O)CC(Cc1ccc(OCCCNc2ccccn2)cc1)c1cccnc1 (stereo unspecified)
-- ask List by increasing IC50. Give your ranking as a list of the labels in the requested order.
-- reply B, A, C
(B: 4.33 µM, A: 9.8 µM, C: 25 µM)
